Target: recombinant TDP1 (Homo sapiens)
Sequence (Q9NUW8 whole entry, species assumed): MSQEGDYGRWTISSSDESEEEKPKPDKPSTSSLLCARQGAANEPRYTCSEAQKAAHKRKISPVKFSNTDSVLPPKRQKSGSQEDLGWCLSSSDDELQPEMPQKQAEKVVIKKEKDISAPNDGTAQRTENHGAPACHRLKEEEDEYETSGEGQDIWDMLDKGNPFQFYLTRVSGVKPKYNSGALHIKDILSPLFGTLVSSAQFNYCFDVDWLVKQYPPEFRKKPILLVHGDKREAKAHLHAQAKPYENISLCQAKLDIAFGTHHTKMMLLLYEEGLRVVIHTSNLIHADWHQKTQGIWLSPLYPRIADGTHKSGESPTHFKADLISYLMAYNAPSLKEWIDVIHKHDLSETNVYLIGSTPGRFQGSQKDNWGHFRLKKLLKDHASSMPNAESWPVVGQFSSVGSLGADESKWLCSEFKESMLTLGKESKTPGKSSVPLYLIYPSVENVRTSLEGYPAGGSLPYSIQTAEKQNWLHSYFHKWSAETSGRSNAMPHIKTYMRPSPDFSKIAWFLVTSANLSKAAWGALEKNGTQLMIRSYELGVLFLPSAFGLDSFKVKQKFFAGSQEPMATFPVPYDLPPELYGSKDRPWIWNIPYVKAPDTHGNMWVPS
Experiment: Recombinant TDP1 assay
Settings: recombinant TDP1, gel-based; read-out: TDP1: IC50 values for the inhibition of TDP1
pIC50: −log10 of the molar value.
measured_metric: pIC50

# returns recorded pIC50 (system: recombinant TDP1 (Homo sapiens)) for `O=C1c2ccccc2-c2c1c1ncccc1c(=O)n2CCCn1ccnc1`
< 3.95

Also check `CN(C)CCCn1c2c(c3cccnc3c1=O)C(=O)c1ccccc1-2`
~3.95

Also check `O=C1c2ccccc2-c2c1c1cnccc1c(=O)n2CCCn1ccnc1`
< 3.95

Also check `O=C1c2ccccc2-c2c1c1ccncc1c(=O)n2CCCN1CCOCC1`
< 3.95

Also check `O=C1c2ccccc2-c2c1c1cccnc1c(=O)n2CCCn1ccnc1`
< 3.95
